// values below are reported GI50
- System: OVCAR-3
- test-name: NCI tumour cell line growth inhibition, 48 h
Calls of active or inactive are those of the source. Rule as the data show it: active = GI50 up to about 1.1 µM and inactive = higher.

Examples with answers:
molecule	system-name	GI50
N=c1oc2ccccc2cc1C(=O)Nc1nccs1	OVCAR-3	9.31 µM (inactive)
CC(=O)CC(O)(C(F)(F)Cl)C(F)(Cl)Cl (stereo not given)	OVCAR-3	> 10 µM (inactive)
C/C=C/C=C/C1=NN(c2cccc(S(=O)(=O)O)c2)C2(C1)C(Cl)C(=O)N2c1nc2ccccc2s1 (stereo not given)	OVCAR-3	8.36 µM (inactive)
CCC1CCCCN1CC(C(C)=O)C(c1ccccc1)c1c(O)c2ccccc2oc1=O (stereo not given)	OVCAR-3	> 100 µM (inactive)
COc1cc2c(cc1O)C(C)Cc1cc3c(cc1N(C)CC2)OCO3 (stereo not given)	OVCAR-3	3.03 µM (inactive)

*Q* Complete the entry with GI50 for COc1ccc2nc3ccccc3c(NCCCN(C)CCCl)c2c1
*A* 0.682 µM (active)

*Q* Complete the entry with GI50 for O=C(/C=C/c1ccc(Br)cc1)c1ccc(NCc2nc3ccccc3[nH]2)cc1
*A* 4.61 µM (inactive)

*Q* Complete the entry with GI50 for CCOC(=O)c1c(C)n(Cc2ccccc2)c(=O)c2ccccc2c(=O)c2c(=O)ccc(=O)c1=2
*A* 34.1 µM (inactive)

*Q* Complete the entry with GI50 for COc1cc(/C=C2\N=C(c3ccccc3)N(/N=C/c3cc4cc(C)ccc4nc3Cl)C2=O)cc(OC)c1OC
*A* 26.5 µM (inactive)

*Q* Complete the entry with GI50 for COC(=O)CSC(=S)Nc1nnc(NC(=S)SCOC(C)=O)n1C(=S)SCC(=O)OC
*A* > 100 µM (inactive)

Cited source for all entries: ChEMBL document CHEMBL1201862
